Assay comment: chemical genetic growth profiling, strain panel (AID 1159580);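 note: tested at 20 µM; growth read once vehicle control cultures reached saturation at 30 °C; 1 = growth at the plate median or of vehicle wells; lower values mean less growth of the strain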
Reported conditions: S. cerevisiae deletion strains, growth OD, locus YHR142W, strain chs7, active compounds read low
Among all 5,500 compounds or so, about 2,000 (36%) were called active. About 18% were inconclusive and are not listed. The list shows a part of the results.
Below, each entry is listed alongside its reported normalized growth.
Just the number.

Record excerpt, results attached:
molecule="COC(=O)CC1C(C)(C)C(OC(C)=O)[C@@H]2[C@@H](OC(C)=O)[C@]34O[C@@]2(O)[C@]1(C)C3CC[C@]1(C)C4=CC(=O)O[C@H]1c1ccoc1 (some centres not stated)" measured=0.983
molecule="C[C@H]1[C@H](C)CC[C@]2(C(=O)O)CC[C@]3(C)C(=CCC4[C@@]5(C)C[C@@H](O)[C@H](O)[C@@](C)(CO)C5CC[C@]43C)[C@H]12 (some centres not stated)" measured=0.996
molecule=CCCc1nc(C)c2c(=O)[nH]c(-c3cc(S(=O)(=O)N4CCN(CC)CC4)ccc3OCC)nn12 measured=0.971

Requested read-out: normalized growth. Entry: Cc1c(C(N)=O)cc([N+](=O)[O-])cc1[N+](=O)[O-] 1.02

Requested read-out: normalized growth. Entry: CCCc1nn(C)c2c(=O)[nH]c(-c3cc(S(=O)(=O)N4CCN(C)CC4)ccc3OCC)nc12 0.99

Requested read-out: normalized growth. Entry: COc1cccc2c1CCC1=CC(=O)CC[C@@]12C 0.975

Requested read-out: normalized growth. Entry: CC(C)Nc1nc(Cl)nc(NC(C)C)n1 0.995
